biological target: Histone deacetylase 7 (Homo sapiens, UniProt Q8WUI4); experiment: Inhibition of recombinant human N-terminal GST-tagged HDAC7 (518 to end residues) expressed in baculovirus infected sf9 insect cells using BocLys(trifluoroacetyl)-AMC as substrate incubated for 30 mins by fluorescence assay
Sequence (Q8WUI4 whole entry): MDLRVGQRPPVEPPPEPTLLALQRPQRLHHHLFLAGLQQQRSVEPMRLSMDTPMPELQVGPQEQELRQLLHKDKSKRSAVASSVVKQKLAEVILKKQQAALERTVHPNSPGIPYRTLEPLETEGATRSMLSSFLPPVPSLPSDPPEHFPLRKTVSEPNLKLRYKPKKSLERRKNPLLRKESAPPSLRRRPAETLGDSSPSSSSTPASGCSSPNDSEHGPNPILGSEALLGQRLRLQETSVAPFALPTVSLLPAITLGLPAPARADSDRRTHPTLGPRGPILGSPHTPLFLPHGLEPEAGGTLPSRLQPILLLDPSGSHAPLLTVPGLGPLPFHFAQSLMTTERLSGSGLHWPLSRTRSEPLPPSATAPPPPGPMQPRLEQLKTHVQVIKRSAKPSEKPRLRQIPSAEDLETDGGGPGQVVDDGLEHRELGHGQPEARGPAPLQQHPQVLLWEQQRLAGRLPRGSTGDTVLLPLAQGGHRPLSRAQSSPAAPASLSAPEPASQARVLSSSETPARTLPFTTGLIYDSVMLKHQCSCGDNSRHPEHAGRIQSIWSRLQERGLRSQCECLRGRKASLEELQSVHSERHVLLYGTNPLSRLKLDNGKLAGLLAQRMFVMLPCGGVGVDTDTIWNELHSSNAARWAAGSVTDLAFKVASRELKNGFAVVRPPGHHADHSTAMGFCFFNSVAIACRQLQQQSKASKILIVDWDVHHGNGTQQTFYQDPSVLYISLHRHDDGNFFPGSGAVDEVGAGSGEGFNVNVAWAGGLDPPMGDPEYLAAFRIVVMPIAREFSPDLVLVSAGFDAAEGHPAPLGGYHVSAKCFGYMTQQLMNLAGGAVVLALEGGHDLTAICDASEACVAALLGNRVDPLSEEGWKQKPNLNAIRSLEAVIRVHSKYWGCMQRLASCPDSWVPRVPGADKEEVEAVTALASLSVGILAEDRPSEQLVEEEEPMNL
outcomeMeasure: IC50

The value of IC50 measured for the molecule O=C1NC(=O)/C(=C\c2ccc(OCC(=O)N3N=C(c4ccc(F)cc4)CC3c3ccc(Cl)c(Cl)c3)cc2)S1 (stereo not drawn) turned out to be 6.7 µM

The value of IC50 measured for the molecule O=C1NC(=O)/C(=C\c2ccc(OCC(=O)N3N=C(c4ccccc4)CC3c3ccc(Cl)c(Cl)c3)cc2)S1 (stereo not drawn) turned out to be > 50 µM

The value of IC50 measured for the molecule O=C1NC(=O)/C(=C\c2ccc(OCC(=O)N3N=C(c4ccc(F)cc4)CC3c3ccco3)cc2)S1 (stereo not drawn) turned out to be > 50 µM
